target: Cytochrome P450 2A6 (Homo sapiens, UniProt P11509); assay: Inhibition of CYP2A6 in human liver microsomes assessed as coumarin 7-hydroxylation after 20 mins by LC-MS/MS analysis; assay type: ADME
Sequence (P11509 whole entry): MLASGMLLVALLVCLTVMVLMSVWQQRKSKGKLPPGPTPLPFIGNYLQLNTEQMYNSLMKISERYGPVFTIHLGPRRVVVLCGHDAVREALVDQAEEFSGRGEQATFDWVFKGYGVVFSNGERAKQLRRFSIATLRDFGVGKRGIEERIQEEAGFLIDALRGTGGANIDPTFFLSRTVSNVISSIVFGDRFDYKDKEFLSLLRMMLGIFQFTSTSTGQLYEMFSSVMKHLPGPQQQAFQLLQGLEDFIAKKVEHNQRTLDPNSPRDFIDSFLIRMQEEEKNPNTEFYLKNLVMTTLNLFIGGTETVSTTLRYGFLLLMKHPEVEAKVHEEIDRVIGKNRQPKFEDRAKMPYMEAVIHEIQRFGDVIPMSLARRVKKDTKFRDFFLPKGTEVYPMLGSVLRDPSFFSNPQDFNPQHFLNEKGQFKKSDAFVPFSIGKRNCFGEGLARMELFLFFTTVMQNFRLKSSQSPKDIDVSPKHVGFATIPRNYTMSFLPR

[
  {
    "COMPOUND": "CC(C)(C)n1nnnc1C(NCCNc1ccnc2cc(Cl)ccc12)c1ccc(Cl)cc1 (configuration not stated)",
    "IC50": "> 20 µM"
  },
  {
    "COMPOUND": "Cc1ccc(C(NCCNc2ccnc3cc(Cl)ccc23)c2nnnn2C(C)(C)C)cc1 (configuration not stated)",
    "IC50": "> 20 µM"
  }
]

====

test system: Plasmodium falciparum; assay: Antiplasmodial activity against chloroquine-resistant Plasmodium falciparum K1 after 24 hrs by [3H]hypoxanthine incorporation assay; type: functional, organism-based
pIC50: −log10 of the molar value.
Category | rule: reported pIC50 within range, see Low: < 5; Medium: ≥ 5 and < 8; High: ≥ 8

[
  {
    "COMPOUND": "Cc1ccc(C(NCCNc2ccnc3cc(Cl)ccc23)c2nnn[nH]2)cc1 (centres undefined)",
    "QUALITATIVE_LABEL": "Low"
  },
  {
    "COMPOUND": "Clc1ccc2c(NCCNC(c3ccccc3)c3nnn[nH]3)ccnc2c1 (centres undefined)",
    "QUALITATIVE_LABEL": "Low"
  },
  {
    "COMPOUND": "Clc1ccc2c(NCCNC(c3ccc(Cl)c(Cl)c3)c3nnn[nH]3)ccnc2c1 (centres undefined)",
    "QUALITATIVE_LABEL": "Medium"
  },
  {
    "COMPOUND": "Clc1ccc2c(NCCCCNC(c3ccccc3)c3nnn[nH]3)ccnc2c1 (centres undefined)",
    "QUALITATIVE_LABEL": "Medium"
  },
  {
    "COMPOUND": "Clc1ccc(C(NCCNc2ccnc3cc(Cl)ccc23)c2nnn[nH]2)cc1 (centres undefined)",
    "QUALITATIVE_LABEL": "Medium"
  },
  {
    "COMPOUND": "Clc1ccc2c(NCCCNC(c3ccccc3)c3nnn[nH]3)ccnc2c1 (centres undefined)",
    "QUALITATIVE_LABEL": "Low"
  },
  {
    "COMPOUND": "CC(C)(C)n1nnnc1C(NCCNc1ccnc2cc(Cl)ccc12)c1ccccc1 (centres undefined)",
    "QUALITATIVE_LABEL": "Medium"
  },
  {
    "COMPOUND": "CC(C)(C)n1nnnc1C(NCCCNc1ccnc2cc(Cl)ccc12)c1ccccc1 (centres undefined)",
    "QUALITATIVE_LABEL": "Medium"
  },
  {
    "COMPOUND": "Cc1ccc(C(NCCNc2ccnc3cc(Cl)ccc23)c2nnnn2C(C)(C)C)cc1 (centres undefined)",
    "QUALITATIVE_LABEL": "High"
  },
  {
    "COMPOUND": "COc1ccc(C(NCCNc2ccnc3cc(Cl)ccc23)c2nnnn2C(C)(C)C)cc1 (centres undefined)",
    "QUALITATIVE_LABEL": "Medium"
  },
  {
    "COMPOUND": "CC(C)(C)n1nnnc1C(NCCNc1ccnc2cc(Cl)ccc12)c1ccc(Cl)cc1 (centres undefined)",
    "QUALITATIVE_LABEL": "High"
  }
]

====

Target: Cytochrome P450 2B6 (Homo sapiens, UniProt P20813)
Sequence (P20813 whole entry): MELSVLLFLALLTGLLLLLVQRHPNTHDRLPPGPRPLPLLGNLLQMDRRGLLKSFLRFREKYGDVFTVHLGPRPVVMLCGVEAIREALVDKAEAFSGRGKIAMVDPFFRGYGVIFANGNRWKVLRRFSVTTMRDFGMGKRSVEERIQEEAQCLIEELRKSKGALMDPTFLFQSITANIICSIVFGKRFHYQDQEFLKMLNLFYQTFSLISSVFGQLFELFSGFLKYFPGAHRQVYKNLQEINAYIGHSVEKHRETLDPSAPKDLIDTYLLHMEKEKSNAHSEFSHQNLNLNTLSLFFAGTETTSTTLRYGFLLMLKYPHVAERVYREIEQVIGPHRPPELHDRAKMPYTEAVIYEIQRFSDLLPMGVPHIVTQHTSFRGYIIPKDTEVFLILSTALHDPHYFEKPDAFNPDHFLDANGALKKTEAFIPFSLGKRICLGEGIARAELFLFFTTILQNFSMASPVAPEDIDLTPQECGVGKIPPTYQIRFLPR

[
  {
    "MOLECULE": "CC(C)(C)n1nnnc1C(NCCNc1ccnc2cc(Cl)ccc12)c1ccc(Cl)cc1 (configuration not stated)",
    "IC50": "> 20 µM"
  },
  {
    "MOLECULE": "Cc1ccc(C(NCCNc2ccnc3cc(Cl)ccc23)c2nnnn2C(C)(C)C)cc1 (configuration not stated)",
    "IC50": "> 20 µM"
  }
]

====

target: Cytochrome P450 1A2 (Homo sapiens)
Sequence (P05177 whole entry): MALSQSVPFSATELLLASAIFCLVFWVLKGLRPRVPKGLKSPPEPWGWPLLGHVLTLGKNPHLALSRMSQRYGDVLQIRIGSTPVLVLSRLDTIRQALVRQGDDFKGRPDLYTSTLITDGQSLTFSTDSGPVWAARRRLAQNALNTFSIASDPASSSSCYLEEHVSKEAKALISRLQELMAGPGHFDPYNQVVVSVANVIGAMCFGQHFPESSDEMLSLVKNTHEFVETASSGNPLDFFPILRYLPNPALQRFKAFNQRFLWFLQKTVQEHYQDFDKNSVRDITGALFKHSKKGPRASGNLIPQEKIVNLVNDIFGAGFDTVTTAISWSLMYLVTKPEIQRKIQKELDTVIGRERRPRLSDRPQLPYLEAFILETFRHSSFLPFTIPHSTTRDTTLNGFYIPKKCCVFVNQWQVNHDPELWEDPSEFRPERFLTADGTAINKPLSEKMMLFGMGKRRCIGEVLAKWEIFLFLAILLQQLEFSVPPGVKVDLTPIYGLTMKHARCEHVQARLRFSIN
Reported IC50 is given for each of the following compounds.

[
  {
    "COMPOUND": "CC(C)(C)n1nnnc1C(NCCNc1ccnc2cc(Cl)ccc12)c1ccc(Cl)cc1 (configuration not stated)",
    "IC50": "> 20 µM"
  },
  {
    "COMPOUND": "Cc1ccc(C(NCCNc2ccnc3cc(Cl)ccc23)c2nnnn2C(C)(C)C)cc1 (configuration not stated)",
    "IC50": "> 20 µM"
  }
]

====

tested on: CHO; assay: Cytotoxicity against CHO cells; format: cell-based; conditions: Cricetulus griseus
pIC50: −log10 of the molar value.
Property: pIC50; scope: individual compounds

[
  {
    "COMPOUND": "CC(C)(C)n1nnnc1C(NCCNc1ccnc2cc(Cl)ccc12)c1ccc(Cl)cc1 (stereo not drawn)",
    "pIC50": 4.01
  },
  {
    "COMPOUND": "CC(C)(C)n1nnnc1C(NCCNc1ccnc2cc(Cl)ccc12)c1ccc(Cl)c(Cl)c1 (stereo not drawn)",
    "pIC50": 4.98
  },
  {
    "COMPOUND": "Cc1ccc(C(NCCNc2ccnc3cc(Cl)ccc23)c2nnnn2C(C)(C)C)cc1 (stereo not drawn)",
    "pIC50": 3.73
  }
]

====

target: Cytochrome P450 2D6 (Homo sapiens, UniProt P10635)
Sequence (P10635 whole entry): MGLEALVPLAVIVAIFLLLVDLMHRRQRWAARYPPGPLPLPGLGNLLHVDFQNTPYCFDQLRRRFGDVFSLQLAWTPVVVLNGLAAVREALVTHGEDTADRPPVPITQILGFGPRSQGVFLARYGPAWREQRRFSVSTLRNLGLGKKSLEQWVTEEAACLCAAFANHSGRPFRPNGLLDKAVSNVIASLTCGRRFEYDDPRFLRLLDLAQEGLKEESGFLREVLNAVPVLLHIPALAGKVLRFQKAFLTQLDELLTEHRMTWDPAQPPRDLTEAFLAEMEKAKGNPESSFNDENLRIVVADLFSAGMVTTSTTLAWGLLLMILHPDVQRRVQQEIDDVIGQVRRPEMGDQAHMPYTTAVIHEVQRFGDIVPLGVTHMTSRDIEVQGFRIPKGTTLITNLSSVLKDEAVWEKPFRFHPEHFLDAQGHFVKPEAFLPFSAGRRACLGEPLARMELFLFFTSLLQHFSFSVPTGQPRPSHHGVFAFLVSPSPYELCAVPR
pIC50: −log10 of the molar value.
EXPERIMENTAL_READOUT: pIC50

[
  {
    "MOLECULE": "Cc1ccc(C(NCCNc2ccnc3cc(Cl)ccc23)c2nnnn2C(C)(C)C)cc1 (configuration not stated)",
    "TARGET_OF_ASSAY": "Cytochrome P450 2D6 (Homo sapiens, UniProt P10635)",
    "EXPERIMENTAL_READOUT": "pIC50",
    "NUMERIC_RESULT": 5.01
  },
  {
    "MOLECULE": "CC(C)(C)n1nnnc1C(NCCNc1ccnc2cc(Cl)ccc12)c1ccc(Cl)cc1 (configuration not stated)",
    "TARGET_OF_ASSAY": "Cytochrome P450 2D6 (Homo sapiens, UniProt P10635)",
    "EXPERIMENTAL_READOUT": "pIC50",
    "NUMERIC_RESULT": 5.40
  }
]

====

target: Cytochrome P450 2E1 (Homo sapiens)
Sequence (P05181 whole entry): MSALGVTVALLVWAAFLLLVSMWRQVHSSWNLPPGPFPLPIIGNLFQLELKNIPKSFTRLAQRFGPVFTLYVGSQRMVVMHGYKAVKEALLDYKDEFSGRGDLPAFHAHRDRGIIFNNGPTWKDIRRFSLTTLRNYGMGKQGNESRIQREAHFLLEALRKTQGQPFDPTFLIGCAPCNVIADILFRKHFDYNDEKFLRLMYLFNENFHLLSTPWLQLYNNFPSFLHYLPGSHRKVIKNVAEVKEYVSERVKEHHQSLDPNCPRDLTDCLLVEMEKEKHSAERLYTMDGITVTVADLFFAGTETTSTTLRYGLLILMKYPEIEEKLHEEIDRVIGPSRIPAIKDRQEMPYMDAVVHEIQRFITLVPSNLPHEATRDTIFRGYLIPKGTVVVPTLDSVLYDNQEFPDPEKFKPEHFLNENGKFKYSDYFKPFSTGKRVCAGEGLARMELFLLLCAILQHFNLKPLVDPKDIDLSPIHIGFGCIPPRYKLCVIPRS

[
  {
    "MOLECULE": "CC(C)(C)n1nnnc1C(NCCNc1ccnc2cc(Cl)ccc12)c1ccc(Cl)cc1 (configuration not stated)",
    "TARGET_OF_ASSAY": "Cytochrome P450 2E1 (Homo sapiens)",
    "IC50": "> 20 µM"
  },
  {
    "MOLECULE": "Cc1ccc(C(NCCNc2ccnc3cc(Cl)ccc23)c2nnnn2C(C)(C)C)cc1 (configuration not stated)",
    "TARGET_OF_ASSAY": "Cytochrome P450 2E1 (Homo sapiens)",
    "IC50": "> 20 µM"
  }
]

====

target: UniProtKB P10632
Sequence (P10632 whole entry): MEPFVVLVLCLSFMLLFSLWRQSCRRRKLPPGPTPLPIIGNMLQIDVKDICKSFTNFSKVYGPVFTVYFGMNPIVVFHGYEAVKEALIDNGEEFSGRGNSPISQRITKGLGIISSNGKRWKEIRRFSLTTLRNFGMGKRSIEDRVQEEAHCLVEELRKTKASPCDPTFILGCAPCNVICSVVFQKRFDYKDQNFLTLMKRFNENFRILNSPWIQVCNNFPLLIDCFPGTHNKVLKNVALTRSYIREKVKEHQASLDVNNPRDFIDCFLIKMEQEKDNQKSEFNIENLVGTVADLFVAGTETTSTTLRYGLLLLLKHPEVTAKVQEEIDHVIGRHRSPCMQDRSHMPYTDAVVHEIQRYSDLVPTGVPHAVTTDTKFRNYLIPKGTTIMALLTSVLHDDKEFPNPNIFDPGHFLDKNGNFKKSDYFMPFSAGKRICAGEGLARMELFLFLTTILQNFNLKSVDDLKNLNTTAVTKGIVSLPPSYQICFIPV
pIC50: −log10 of the molar value.

[
  {
    "MOLECULE": "Cc1ccc(C(NCCNc2ccnc3cc(Cl)ccc23)c2nnnn2C(C)(C)C)cc1 (configuration not stated)",
    "pIC50": 5.40
  },
  {
    "MOLECULE": "CC(C)(C)n1nnnc1C(NCCNc1ccnc2cc(Cl)ccc12)c1ccc(Cl)cc1 (configuration not stated)",
    "pIC50": 4.90
  }
]

====

assay: Hepatic extraction ratio in human liver microsomes at 1 uM after 40 mins; format: ADME; conditions: read-out: ERH

[
  {
    "MOLECULE": "CC(C)(C)n1nnnc1C(NCCNc1ccnc2cc(Cl)ccc12)c1ccc(Cl)c(Cl)c1 (stereo unspecified)",
    "hepatic extraction ratio at 40 min, 1 µM": "> 0.8"
  }
]

====

assay: Kinetic solubility of the compound in 0.01 M HCl at pH 2 after 2 hrs by HPLC analysis; type: physicochemical; details: read-out: Kinetic_solubility
EXPERIMENTAL_READOUT: solubility kinetic at 2 h

[
  {
    "MOLECULE": "Clc1ccc2c(NCCNC(c3ccc(Cl)c(Cl)c3)c3nnn[nH]3)ccnc2c1 (stereo unspecified)",
    "EXPERIMENTAL_READOUT": "solubility kinetic at 2 h",
    "RESULT": "191 µM"
  },
  {
    "MOLECULE": "CC(C)(C)n1nnnc1C(NCCNc1ccnc2cc(Cl)ccc12)c1ccc(Cl)c(Cl)c1 (stereo unspecified)",
    "EXPERIMENTAL_READOUT": "solubility kinetic at 2 h",
    "RESULT": "194 µM"
  },
  {
    "MOLECULE": "Cc1ccc(C(NCCNc2ccnc3cc(Cl)ccc23)c2nnnn2C(C)(C)C)cc1 (stereo unspecified)",
    "EXPERIMENTAL_READOUT": "solubility kinetic at 2 h",
    "RESULT": "127 µM"
  },
  {
    "MOLECULE": "CC(C)(C)n1nnnc1C(NCCNc1ccnc2cc(Cl)ccc12)c1ccc(Cl)cc1 (stereo unspecified)",
    "EXPERIMENTAL_READOUT": "solubility kinetic at 2 h",
    "RESULT": "> 200 µM"
  },
  {
    "MOLECULE": "Clc1ccc(C(NCCNc2ccnc3cc(Cl)ccc23)c2nnn[nH]2)cc1 (stereo unspecified)",
    "EXPERIMENTAL_READOUT": "solubility kinetic at 2 h",
    "RESULT": "> 200 µM"
  },
  {
    "MOLECULE": "CC(C)(C)n1nnnc1C(NCCNc1ccnc2cc(Cl)ccc12)c1ccccc1 (stereo unspecified)",
    "EXPERIMENTAL_READOUT": "solubility kinetic at 2 h",
    "RESULT": "> 200 µM"
  }
]
